biological target: T1, Anti-CD28 Fab (SEQ ID NOs: 696, 697); test: phage binding ELISA; Fab on plate pre-incubated with CD28 antigen as competitor, anti-M13 HRP detection;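 also: crude clonal phage supernatants screened by ELISA, with comparison wells pre-incubated in blocking buffer only, lacking CD28 antigen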
T1 construct: Biotinylated and captured on neutravidin coated plates in the phage ELISA
T1 sequence (VH, as listed by the source, chain 1 of 2): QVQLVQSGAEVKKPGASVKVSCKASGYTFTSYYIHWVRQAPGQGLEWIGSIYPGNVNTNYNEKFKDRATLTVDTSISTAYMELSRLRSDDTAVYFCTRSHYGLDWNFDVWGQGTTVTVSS
T1 sequence (VL, as listed by the source, chain 2 of 2): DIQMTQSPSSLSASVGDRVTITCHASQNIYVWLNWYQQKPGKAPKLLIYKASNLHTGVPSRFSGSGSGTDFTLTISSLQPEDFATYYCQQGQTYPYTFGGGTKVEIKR
Where no end group is shown, it is not given here.
TEST_READOUT: Anti-CD28 Fab signal in the presence of CD28

- YCEGHSAEFMTKCL (cysteine pairing not given here; also: displayed on phage by fusion to pIII, pIII and linker sequence not given here, Clonal phage of the Peptide-87 library; not shown: fused to the pIII filament protein of the bacteriophage) [Phage-813]: 0.06
- YCEGHSAEYIFKCL (cysteine pairing not given here; also: displayed on phage by fusion to pIII, pIII and linker sequence not given here, Clonal phage of the Peptide-87 library; not shown: fused to the pIII filament protein of the bacteriophage) [Phage-804]: 0.05
- YCDGHLPMYFAKCM (cysteine pairing not given here; also: displayed on phage by fusion to pIII, pIII and linker sequence not given here, Clonal phage of the Peptide-87 library; not shown: fused to the pIII filament protein of the bacteriophage) [Phage-801]: 0.06
